Recorded inhibition at 1 µM, one value per entry.
TARGET OR SYSTEM: PNCK Nano-luciferase fusion (Homo sapiens)
Construct: host or cells: HEK293
Sequence (Q6P2M8 whole entry, the tested form may be a part): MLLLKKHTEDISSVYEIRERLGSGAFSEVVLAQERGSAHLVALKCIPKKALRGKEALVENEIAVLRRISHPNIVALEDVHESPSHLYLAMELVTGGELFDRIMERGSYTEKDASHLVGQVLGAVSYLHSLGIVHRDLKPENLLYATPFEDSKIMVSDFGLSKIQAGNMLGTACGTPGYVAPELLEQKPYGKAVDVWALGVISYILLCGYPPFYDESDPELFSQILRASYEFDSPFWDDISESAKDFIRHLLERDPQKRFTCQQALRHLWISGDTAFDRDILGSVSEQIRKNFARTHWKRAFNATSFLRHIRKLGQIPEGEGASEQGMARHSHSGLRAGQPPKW
EXPERIMENTAL DETAILS: NanoBRET Target Engagement Intracellular Kinase Assay, cell-based PNCK binding screen and dose response in HEK293 cells
TEST CONDITIONS: compound 1uM; HEK293; K10 tracer 1uM; normalized to staurosporine and DMSO; read-out: Avg. Normalized % Inhibition, 1uM, Nanobret
Excerpt: The NanoBRET Target Engagement Intracellular Kinase Assay (Promega N2520) is a cell-based binding screen which reads loss of BRET signal as a result of target binding. A PNCK Nano-luciferase fusion vector plasmid was generated custom by Promega. The K-10 tracer was used for the assay, as determined by Promega. The plasmid was maxiprepped by Genewiz for use in all future assays. […] The following day, cells were counted to 10,000, resuspended in assay media (Optimem with no phenol red, 1% FBS). […]
State the answer as a number, implicitly in %.

| MOLECULE | inhibition at 1 µM (%) |
| --- | --- |
| Cc1ccc(F)c(S(=O)(=O)Nc2ccc(-c3nn(C)cc3C(=O)O)cc2)c1 | 2.86 |
| Cc1cc(NC(=O)[C@@H]2CCO[C@H]2c2nccn2C)nnc1C | 0 |
| Cn1cnnc1SCc1nc(N)c2c3c(sc2n1)CCCC3 | 27.2 |
| NC(=O)Nc1cccc(C(=O)Nc2cc3c(cc2Br)OCCO3)c1 | 28 |
| Clc1nc(CN2CCCCC2)nc2sc3c(c12)CCC3 | 1.68 |
| O=C(COc1ccc2c3c(c(=O)oc2c1)CCCCC3)N1CCc2ccccc21 | 56.7 |
| c1ccc2c(-c3nnc(Sc4cnccn4)o3)cccc2c1 | 21.5 |
| CC(C)(CC(=O)Nc1ccc(Oc2ccnc3ccccc23)c(F)c1)C(=O)O | 0 |
| N#Cc1cnc(Sc2nnc(-c3ccccc3)o2)cn1 | 4.54 |
| COc1ccc(Cl)c(S(=O)(=O)Nc2ccc(OCC(=O)O)cc2)c1 | 0 |

## Input For the molecule Cc1nc2c(c(=O)[nH]1)CCN(Cc1cc3ccccc3n(C)c1=O)CC2 , what inhibition at 1 µM is on record?
## Output 25.9

## Input Look at this molecule and give its reported inhibition at 1 µM. CN(CC(=O)NC(C)(C)C)Cn1nc2c3c(cccc31)C(=O)c1ccccc1-2
## Output 18

## Input # query: inhibition at 1 µM of entry Cc1cc(C)n2nc(SCc3nc4ccccc4s3)nc2n1
## Output 16.7
